- assay.protocol: CEETOX_H295R_MTT_cell_viability: Viability Assessment in the CeeTox HT-H295R MTT Assay (AID 2283718)
Active and inactive are the calls of the source. How the source made its calls: active means hit-call score of the fitted dose curve at least 0.9, where 1 is the maximum; inactive means score below 0.9.
Lab note: assign the record to one of active, inactive

Task: Per the assay record, what outcome was assigned to Cc1ccc(C(C)c2ccc(C)c(C)c2)cc1C ?
Output: inactive

Task: Identify the outcome logged in this assay for the compound shown: CN(C)c1ccc(C(=N)c2ccc(N(C)C)cc2)cc1
Output: active

Task: Returns: the outcome recorded for COc1ccc2nc(N)sc2c1 in this assay.
Output: inactive

Task: How did this test come out for CCCCC/C=C\CCC=O ?
Output: inactive

Task: For this compound, state the assay outcome: O=C(C=Cc1ccccc1)OCc1ccccc1
Output: inactive

Task: Per the records of this test, what outcome belongs to CCOC(=O)Cc1cccc2ccccc12 ?
Output: inactive

Task: Assay outcome for C=COCCCC : what was it?
Output: inactive

Task: Hello, I am checking results. What call was entered for CO[Si](CCC1CCC2OC2C1)(OC)OC (centres undefined) ?
Output: inactive

Task: What is the recorded call for this compound in the test? COC(=O)c1c(C)cc(O)c(C)c1O
Output: inactive

###

- subject.of.test: Paired box protein Pax-6 (Homo sapiens)
- assay.protocol: ATG_Pax6_CIS: Attagene CIS-FACTORIAL HepG2 Assay for human Paired Box 6 (PAX6) (AID 2282956)
- experimental.parameters: HepG2 CIS-FACTORIAL PAX6 reporter transcription, RNA readout; actives raise or lower the signal
Calls of active or inactive are those of the source. How the source made its calls: active means hit-call score of the fitted dose curve at least 0.9, where 1 is the maximum; inactive means score below 0.9.
reported.metric: AC50

Record excerpt, results attached:
| compound | value.measured |
| --- | --- |
| CC(=O)CC(N)=O | inactive |
| Cc1cnc(NC(=O)C2=C(O)c3ccccc3S(=O)(=O)N2C)s1 | inactive |
| CC(=O)Nc1ccc2c(c1)Cc1cc(NC(C)=O)ccc1-2 | inactive |
| O=C(O)C(c1ccc(Cl)cc1)c1ccc(Cl)cc1 | inactive |
| C[C@]12C=CC(=O)C=C1CC[C@@H]1[C@@H]2[C@@H](O)C[C@@]2(C)[C@H]1CC[C@]2(O)C(=O)CO | inactive |

Task: Fill in: AC50 of CC(C)(C)C(=O)C=Cc1ccc(Cl)cc1 is ___
Output: 36.8 µM (active)

Task: Which value of AC50 has been reported for Cc1ccc(N)c([N+](=O)[O-])c1 in the records?
Output: inactive

Task: Which AC50 reading was recorded for the compound C=C[Si](C)(C)O[Si](C)(C)C=C ?
Output: inactive

Task: Find the recorded AC50 belonging to CCCCCCCCCCOC(C)=O and report it.
Output: inactive

Task: // query AC50 value for entry CC(C)(C)C(=O)CCc1ccc(Cl)cc1
Output: inactive

Task: Given the entry O=C(C(Cl)Cl)N1CCOC12CCCCC2 , report its measured AC50.
Output: 13.1 µM (active)

Task: Name the reported AC50 value associated with the compound Nc1ccc2cc3ccccc3cc2c1
Output: inactive

Task: Look up AC50 for this compound: C=C(C)C(=O)OCCO
Output: inactive

Task: For CC(C)(C)C1CCCCC1=O (centres undefined) , what is its reported AC50?
Output: inactive

###

- Read-out: E-selectin (Homo sapiens) (UniProt P16581)
- Sequence (P16581 whole entry, looked up): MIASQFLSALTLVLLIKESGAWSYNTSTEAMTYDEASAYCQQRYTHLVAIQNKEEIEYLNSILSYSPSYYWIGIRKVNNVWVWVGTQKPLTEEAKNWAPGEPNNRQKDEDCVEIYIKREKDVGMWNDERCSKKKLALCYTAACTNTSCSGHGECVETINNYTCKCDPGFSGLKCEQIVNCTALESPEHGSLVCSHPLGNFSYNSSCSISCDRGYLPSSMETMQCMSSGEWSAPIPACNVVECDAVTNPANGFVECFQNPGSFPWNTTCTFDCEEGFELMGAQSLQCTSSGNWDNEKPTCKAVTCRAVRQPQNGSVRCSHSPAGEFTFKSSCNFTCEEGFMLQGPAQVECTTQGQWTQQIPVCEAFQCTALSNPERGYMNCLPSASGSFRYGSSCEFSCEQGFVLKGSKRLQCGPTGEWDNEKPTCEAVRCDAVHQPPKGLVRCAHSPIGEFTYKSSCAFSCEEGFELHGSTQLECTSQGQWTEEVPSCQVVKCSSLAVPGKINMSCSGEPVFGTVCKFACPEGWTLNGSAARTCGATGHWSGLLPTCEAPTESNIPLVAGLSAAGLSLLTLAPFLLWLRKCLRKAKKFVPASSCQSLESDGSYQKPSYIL
- assay.protocol: BSK_3C_Eselectin: BioMAP Diversity Plus: 3C Assay for Eselectin Biomarker Activity (AID 2283015)
- experimental.parameters: primary human endothelial cells (HUVEC); actives raise or lower the signal
Active and inactive are the calls of the source. Rule for the calls: active = hit-call score of the fitted dose curve at least 0.9, where 1 is the maximum; inactive = score below 0.9.

| compound | AC50 |
| --- | --- |
| O=C(c1ccc(O)cc1)c1ccc(O)cc1O | inactive |
| C=CCOCC(O)CCl (centres undefined) | inactive |
| CO[Si](OC)(OC)c1ccccc1 | inactive |
| c1ccc2c(c1)ccc1ncccc12 | 16.4 µM (active) |

###

- assay.protocol: CCTE_Harrill_HTTr_Viability_MCF7: CCTE's 6-hour Cell Viability Assessment for the High-Throughput Transcriptomics (HTTr) Platform, in MCF-7 cells cultured in DMEM + 10% fetal bovine serum, Harrill Lab (AID 2284010)
Calls of active or inactive are those of the source. How the source made its calls: active means hit-call score of the fitted dose curve at least 0.9, where 1 is the maximum; inactive means score below 0.9.
Use one of these outcomes when replying: 1 (yes) for active, 0 (no) for inactive

Task: Lab log entry: O=c1[nH]nc(-c2ccc([N+](=O)[O-])o2)o1 — outcome as called in the assay?
Output: 0 (no)

Task: Which outcome was assigned to CCCCC(CC)COC(=O)c1ccccc1 (stereo unspecified) in this test?
Output: 0 (no)

Task: Hello, I am checking results. What call was entered for Cc1c(C)c([N+](=O)[O-])c(C(C)(C)C)c([N+](=O)[O-])c1C ?
Output: 0 (no)

Task: Tell me the recorded outcome of this test for CCC(=O)Oc1ccc(/C(CC)=C(\CC)c2ccc(OC(=O)CC)cc2)cc1 .
Output: 0 (no)

Task: Record request — test call for COc1ccc(C(Cl)=C(c2ccc(OC)cc2)c2ccc(OC)cc2)cc1
Output: 0 (no)

Task: Dear all, I need the recorded test outcome for CC(=O)Nc1nnc(S(N)(=O)=O)s1 , thank you.
Output: 0 (no)

Task: Outcome? C=C1C2CCC(C2)C1(C)C (stereo unspecified)
Output: 0 (no)

Task: Recorded call for c1ccc2c(c1)ccc1cc3c(ccc4ccccc43)cc12 ?
Output: 0 (no)

Task: Returns: the outcome recorded for NC(=O)N=NC(N)=O in this assay.
Output: 0 (no)

Task: # lookup: test call for O=C(C(Cl)Cl)N1CCOC12CCCCC2
Output: 0 (no)

Task: Can you look up the reported call for CCCCCC/C=C\CCCCCCCC(=O)O for me?
Output: 0 (no)

Task: Short answer needed: outcome of this test for NC(=O)c1ccccc1O ?
Output: 0 (no)

Task: I'd appreciate the recorded outcome for CC/C=C\C/C=C\C/C=C\CCCCCCCC(=O)O from this test.
Output: 0 (no)

Task: How was O=Cc1ccc(CO)o1 classified in this test?
Output: 0 (no)

Task: State the result this test recorded for CCCCCCCC/C=C\CCCCCCCC(=O)O .
Output: 0 (no)

Task: Please share the test call associated with C1CN(SSN2CCOCC2)CCO1 .
Output: 0 (no)

Task: Record request — test call for O=C(O)CCCC[C@@H]1SC[C@@H]2NC(=O)N[C@@H]21
Output: 0 (no)

Task: Check the results log: what was the call for CCCCCCCCCCCCCCCC[n+]1ccccc1 ?
Output: 1 (yes)

Task: Per the assay record, what outcome was assigned to CC(=O)[C@H]1[C@H](C#N)C[C@H]2[C@@H]3CC=C4C[C@@H](O)CC[C@]4(C)[C@H]3CC[C@@]21C ?
Output: 0 (no)

Task: Record request — test call for CC(=O)[C@@]1(O)CC[C@H]2[C@@H]3C[C@H](C)C4=CC(=O)C=C[C@]4(C)[C@@]3(F)[C@@H](O)C[C@@]21C
Output: 0 (no)

Task: What call does the record list for O=C1C=CC(=O)O1 ?
Output: 0 (no)

Task: Check the results log: what was the call for CCCOC(=O)CCCCC(=O)OCCC ?
Output: 0 (no)

Task: Hi, sorry to bother you, what did the test record for CC1(C)[C@H]2CC[C@]1(C)C(=O)C2 ?
Output: 0 (no)

Task: Any idea what this test logged for COC(=O)C1=C(C)NC(C)=C(C(=O)OCC(C)C)C1c1ccccc1[N+](=O)[O-] (stereo unspecified) ?
Output: 0 (no)

Task: Record request — test call for C#CC1(O)CC[C@H]2[C@@H]3CCC4=CCCC[C@@H]4[C@H]3CC[C@@]21C (stereo partly specified)
Output: 0 (no)

Task: Which outcome did this test record for the compound CCCCC(CC)COC(=O)c1ccccc1O (stereo unspecified) ?
Output: 0 (no)

###

- subject.of.test: Hepatocyte nuclear factor 4-alpha (Homo sapiens)
- assay.protocol: ATG_HNF4a_TRANS: Attagene TRANS-FACTORIAL HepG2 Assay for human Hepatocyte Nuclear Factor 4 alpha (HNF4a) (AID 2282982)
- experimental.parameters: HepG2 HNF4a transactivation reporter, mRNA readout
Inconclusive results are not listed. Active and inactive are the calls of the source. Rule for the calls: active = hit-call score of the fitted dose curve at least 0.9, where 1 is the maximum; inconclusive = response in the unintended direction; inactive = score below 0.9.
Mark one answer only. Choices: active, inactive

Task: Hey, what did the test say about CCOc1nc(F)cc2nc(S(=O)(=O)Nc3c(Cl)cccc3C(=O)OC)nn12 ?
Output: inactive

Task: Which outcome was entered for the compound c1cc(N(CC2CO2)CC2CO2)ccc1OCC1CO1 (centres undefined) in this test?
Output: inactive

Task: I'd appreciate the recorded outcome for Cc1ccc(N)c([N+](=O)[O-])c1 from this test.
Output: inactive

Task: Which outcome was entered for the compound Nc1ccc(N)c(Cl)c1 in this test?
Output: inactive

Task: How was CCCCCC(C)O (centres undefined) classified in this test?
Output: inactive

Task: Answer briefly: the call reported for C=C(C)C(=O)OCC(C)C in this assay.
Output: inactive

Task: # lookup: test call for Cc1ccc(C2OC[C@@H]3OC(c4ccc(C)cc4)O[C@H]([C@H](O)CO)[C@@H]3O2)cc1 (some centres undefined)
Output: inactive

Task: Short answer needed: outcome of this test for O=C(Nc1cccc(C(F)(F)F)c1)c1cc(Br)cc(Br)c1O ?
Output: inactive

Task: Please indicate how the test categorized CCCCCCCCCCCCCCCC[n+]1ccccc1 .
Output: active

Task: Per the assay record, what outcome was assigned to CCOC(=O)c1ccc(N(C)C)cc1 ?
Output: inactive

Task: Dear all, I need the recorded test outcome for Cc1cc(O)c(Cl)c(C)c1Cl , thank you.
Output: inactive

Task: Record request — test call for CCCCCCCCCCOC(C)=O
Output: inactive

Task: # outcome recorded in this test, key = Cc1ccc([N+](=O)[O-])cc1S(=O)(=O)O
Output: inactive

Task: Hello, I am checking results. What call was entered for COc1c2ccoc2cc2oc(=O)ccc12 ?
Output: inactive
